Each entry below carries its recorded self-cleavage.
B1: CPEB3 Ribozyme (parent)
chain: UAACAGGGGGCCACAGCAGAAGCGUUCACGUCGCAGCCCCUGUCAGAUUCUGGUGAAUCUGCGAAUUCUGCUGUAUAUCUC

variants of: B1; test: self-cleavage, relative activity (ratio to wild type); higher = more cleavage; in vitro, sequencing

Below are worked cases with known answers.
Report measured self-cleavage; entry is G30A C71U
0.18

Report measured self-cleavage; entry is G8U U80C
0.16

Others:
Report measured self-cleavage; entry is A20U U78G
0.26

Report measured self-cleavage; entry is C11U C12U
0.56

Report measured self-cleavage; entry is A15G U67G
0.4

Report measured self-cleavage; entry is G6C U41C
0.49

Report measured self-cleavage; entry is A13U G22U
0.34

Report measured self-cleavage; entry is A5G A56G
0.39

Report measured self-cleavage; entry is A5U A65G
0.55

Report measured self-cleavage; entry is A5G G7U
0.39

Report measured self-cleavage; entry is A18G U72C
0.68

Report measured self-cleavage; entry is A3G A65G
0.55

Report measured self-cleavage; entry is G8C G52A
0.31

Report measured self-cleavage; entry is G9U U49A
0.41

Report measured self-cleavage; entry is C4U U48C
0.99

Report measured self-cleavage; entry is G22C
0.26

Report measured self-cleavage; entry is C12G C29G
0.24

Report measured self-cleavage; entry is U67A A75U
0.65

Report measured self-cleavage; entry is U54A U60C
0.67

Report measured self-cleavage; entry is C29A A57G
0.33

Report measured self-cleavage; entry is A15G A28U
0.39

Report measured self-cleavage; entry is A20G C59U
0.82
